Parameter 'readout' = Ki; parameter 'system' = Mcl-1 (Homo sapiens (Human), UniProt Q07820).
Sequence (Q07820 whole entry): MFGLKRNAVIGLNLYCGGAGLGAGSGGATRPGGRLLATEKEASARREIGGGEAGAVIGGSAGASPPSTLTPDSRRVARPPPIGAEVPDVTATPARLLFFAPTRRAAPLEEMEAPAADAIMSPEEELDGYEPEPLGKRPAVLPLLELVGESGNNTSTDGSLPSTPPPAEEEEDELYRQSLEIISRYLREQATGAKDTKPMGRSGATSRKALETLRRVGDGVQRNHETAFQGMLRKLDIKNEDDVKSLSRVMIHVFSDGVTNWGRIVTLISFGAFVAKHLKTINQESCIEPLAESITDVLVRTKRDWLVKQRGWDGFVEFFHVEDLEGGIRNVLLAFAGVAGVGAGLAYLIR
In your response, put the unit directly after the numeric value.

# lookup: Mcl-1 (Homo sapiens (Human), UniProt Q07820) Ki, key = COC[C@H](O)[C@@]1(COC)/C(F)=C/C[C@H](C)[C@@H](C)S(=O)(=O)NC(=O)c2ccc3c(c2)N(C[C@@H]2CCN21)C[C@@]1(CCCc2cc(Cl)ccc21)CO3
0.072 nM

---
GET Ki | system: Mcl-1 (Homo sapiens (Human), UniProt Q07820) | item: C[C@@H]1[C@@H](C)C/C=C(\F)[C@H]([C@@H](O)CN(C)CCC2CCOCC2)N2CC[C@H]2CN2C[C@@]3(CCCc4cc(Cl)ccc43)COc3ccc(cc32)C(=O)NS1(=O)=O
0.053 nM

State the measured Ki (Mcl-1 (Homo sapiens (Human), UniProt Q07820)) of CO[C@H](C)[C@H]1/C(F)=C/C[C@H](C)[C@@H](C)S(=O)(=O)NC(=O)c2ccc3c(c2)N(C[C@@H]2CCCN21)C[C@@]1(CCOc2cc(Cl)ccc21)CO3
1.93 nM

Look up Mcl-1 (Homo sapiens (Human), UniProt Q07820) data: Ki of C[C@H](O)[C@H]1/C(F)=C/C[C@H](C)[C@@H](C)S(=O)(=O)NC(=O)c2ccc3c(c2)N(C[C@@H]2CCN21)C[C@@]1(CCCc2cc(Cl)ccc21)CO3 , then report it.
0.106 nM

GET Ki where system = Mcl-1 (Homo sapiens (Human), UniProt Q07820) and item = COCCN(CC1CCOCC1)C[C@H](O)[C@H]1/C(F)=C/C[C@H](C)[C@@H](C)S(=O)(=O)NC(=O)c2ccc3c(c2)N(C[C@@H]2CCN21)C[C@@]1(CCCc2cc(Cl)ccc21)CO3
0.025 nM

Find Ki for COCCOCCN(C)C[C@H](O)[C@H]1/C(F)=C/C[C@H](C)[C@@H](C)S(=O)(=O)NC(=O)c2ccc3c(c2)N(C[C@@H]2CCN21)C[C@@]1(CCCc2cc(Cl)ccc21)CO3 on Mcl-1 (Homo sapiens (Human), UniProt Q07820) and write it down.
0.036 nM
